system: Mycobacterium sp. strain JC1 wild type; assay: CFU inhibition of JC1 wild type by compound alone; type: cell-based; conditions: 50 μM, read-out: Compound analog + JC 1 wild type (percentage (%) of CFU inhibition)
inhibition at 50 µM values for the compounds below.
Response body: numeric value in %, unit text excluded.

Examples with their reported inhibition at 50 µM follow.
In [3]: df
Out[3]:
                                   compound          measurename  result
0  COC(=O)c1ccsc1NC(=O)CSc1ccncc1 [Compound 1]  inhibition at 50 µM       6
1  COC(=O)c1ccccc1NC(=O)CSc1ccc(Br)cc1 [Compound 2]  inhibition at 50 µM      12
2  COC(=O)c1ccc(Cl)cc1NC(=O)CCSc1ccccn1 [Compound 4]  inhibition at 50 µM      16

For the next question, use this compound.
Problem: Hi! What's the reported inhibition at 50 µM for COC(=O)c1ccccc1NC(=O)CSc1ccccn1 [Compound 3] on Mycobacterium sp. strain JC1 wild type?
Solution: 8

###

test system: carbon monoxide dehydrogenase (CO-DH); experiment: CO-DH activity assay (INT reduction in the presence of CO, enzyme extract); assay type: biochemical; conditions: 12.5 μM compound; relative to control group set to 100%
measureName: Inhibition of CO-DH activity (%)
Response body: numeric value in %, unit text excluded.

Examples with their reported Inhibition of CO-DH activity follow.
In [3]: df
Out[3]:
                                   compound  unitname  result
0  COC(=O)c1ccc(Cl)cc1NC(=O)CCSc1ccccn1 [Compound 4]         %       7
1  COC(=O)c1ccccc1NC(=O)CSc1ccccn1 [Compound 3]         %      15
2  COC(=O)c1ccsc1NC(=O)CSc1ccncc1 [Compound 1]         %      48

For the next question, use this compound.
Problem: Return reported Inhibition of CO-DH activity; argument: COC(=O)c1ccccc1NC(=O)CSc1ccc(Br)cc1 [Compound 2]
Solution: 18
